Origin of measurements: ChEMBL document CHEMBL1157169

Catalogue of compounds with associated EC50
# Tested on: PC-12
# EXPERIMENT: Radical scavenging activity in rat PC12 cells assessed as inhibition of hydrogen peroxide radical-induced cell damage by MTT assay
# Assay type: functional, cell-based

[
  {
    "CHEMICAL_SMILES": "CC1(C)N(O)C(c2ccc(O)cc2)=[N+]([O-])C1(C)C",
    "EC50 (µM)": 49.1
  },
  {
    "CHEMICAL_SMILES": "CC1(C)N(O)C(c2ccc(OCC(=O)NCCCC[C@H](N)C(=O)O)cc2)=[N+]([O-])C1(C)C",
    "EC50 (µM)": 29.9
  },
  {
    "CHEMICAL_SMILES": "CC(C)(C)OC(=O)N[C@@H](CCCCNC(=O)COc1ccc(C2=[N+]([O-])C(C)(C)C(C)(C)N2O)cc1)C(=O)O",
    "EC50 (µM)": 29.3
  }
]

###

# System: PC-12
# EXPERIMENT: Radical scavenging activity in rat PC12 cells assessed as inhibition of hydrogen peroxide radical-induced cell damage by MTT assay
# Format: functional, cell-based
pEC50: −log10 of the molar value.
Catalogue of compounds with associated pEC50

[
  {
    "CHEMICAL_SMILES": "CC1(C)N(O)C(c2ccc(OCC(=O)N[C@@H](CCCCN)C(=O)O)cc2)=[N+]([O-])C1(C)C",
    "pEC50": 4.52
  },
  {
    "CHEMICAL_SMILES": "CC(C)(C)OC(=O)N[C@@H](CCCNC(=N)NC(=O)COc1ccc(C2=[N+]([O-])C(C)(C)C(C)(C)N2O)cc1)C(=O)O",
    "pEC50": 4.49
  },
  {
    "CHEMICAL_SMILES": "CC1(C)N(O)C(c2ccc(OCC(=O)O)cc2)=[N+]([O-])C1(C)C",
    "pEC50": 4.50
  },
  {
    "CHEMICAL_SMILES": "CC1(C)N(O)C(c2ccc(OCCNC(=O)C[C@H](N)C(=O)O)cc2)=[N+]([O-])C1(C)C",
    "pEC50": 4.31
  }
]
